- Tested target: PPARδ-RXRα heterodimer (Homo sapiens)
- Sequence (Q03181 1-441): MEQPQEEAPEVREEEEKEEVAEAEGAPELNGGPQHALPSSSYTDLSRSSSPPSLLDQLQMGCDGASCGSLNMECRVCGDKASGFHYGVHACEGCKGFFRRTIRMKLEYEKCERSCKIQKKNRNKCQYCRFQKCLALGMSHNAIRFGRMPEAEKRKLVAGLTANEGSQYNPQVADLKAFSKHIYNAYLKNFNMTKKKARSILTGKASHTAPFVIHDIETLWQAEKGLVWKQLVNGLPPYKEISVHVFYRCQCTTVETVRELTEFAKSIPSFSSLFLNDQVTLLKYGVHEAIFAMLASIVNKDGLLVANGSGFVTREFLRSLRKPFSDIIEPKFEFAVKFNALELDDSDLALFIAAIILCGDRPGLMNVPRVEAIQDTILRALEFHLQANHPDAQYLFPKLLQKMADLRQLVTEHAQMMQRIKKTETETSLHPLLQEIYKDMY
- Sequence (P19793 1-462 partner): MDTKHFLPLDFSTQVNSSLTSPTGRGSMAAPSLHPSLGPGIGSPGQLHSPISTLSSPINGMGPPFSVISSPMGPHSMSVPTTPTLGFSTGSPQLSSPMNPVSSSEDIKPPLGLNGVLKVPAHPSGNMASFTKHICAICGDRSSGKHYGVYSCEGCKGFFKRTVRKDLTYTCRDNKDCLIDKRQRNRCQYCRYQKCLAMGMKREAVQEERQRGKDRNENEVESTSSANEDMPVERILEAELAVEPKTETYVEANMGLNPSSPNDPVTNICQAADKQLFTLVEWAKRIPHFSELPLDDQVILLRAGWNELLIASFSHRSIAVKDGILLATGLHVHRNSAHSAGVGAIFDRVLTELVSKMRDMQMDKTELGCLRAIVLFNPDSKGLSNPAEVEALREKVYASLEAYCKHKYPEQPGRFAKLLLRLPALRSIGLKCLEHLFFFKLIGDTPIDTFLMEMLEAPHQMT
- Protocol: PPARδ-RXRα heterodimer ligand activity, luciferase reporter in COS-1 transformant (Test Example 4)
- Measurement conditions: COS-1 transformant (hPPARδ, hRXRα, reporter), 36-48 hours, concentration for 50% of the maximum fold induction
- Procedure: The transformant obtained in Reference Example 9a was suspended in DMEM medium (produced by Life Technologies, Inc., USA) containing 0.1% fatty acid-free bovine serum albumin (BSA) (produced by Wako Pure Chemical Industries, Ltd.), and inoculate to each well of a 96-well white plate (produced by Corning Costar Corporation, USA) by 80 μl at 1×10^4 cells/well. […] After stirring, the luciferase activity was determined using 1420 ARVO Multilabel Counter (produced by PerkinElmer Inc., USA). […]
Below is a list of entries, each paired with its recorded log10 of EC50 value.
Endpoint: log10 of EC50 (log10 of the value in nM)

{"columns": ["Smiles input", "log10 of EC50"],
 "data": [
  ["CCOc1nn(-c2ccc(C(F)(F)F)cn2)cc1CCCOc1c(CC(=O)O)cccc1OC", 0.76],
  ["CCOc1nn(-c2ccc(C(F)(F)F)cn2)cc1CCOc1ccc(CCC(=O)O)c(C)c1", 0.28],
  ["CCCc1nn(-c2ccc(C(F)(F)F)cn2)cc1CCCOc1cc(CC(=O)O)ccc1OCC", 0.66],
  ["CCOc1nn(-c2ccc(C(F)(F)F)cn2)cc1CCCOc1cc(CC(=O)O)cc(OC)c1", 0.20],
  ["CCOc1nn(-c2ccc(C(F)(F)F)cn2)cc1CCOc1ccc(CCC(=O)O)c(OC)c1", 0.58],
  ["CCCc1nn(-c2ccc(C(F)(F)F)cn2)cc1CCCOc1cccc(CC(=O)O)c1F", 0.74],
  ["COc1ccc(CC(=O)O)cc1OCCCc1cn(-c2ccc(C(F)(F)F)cn2)nc1C1CCCCC1", 0.76],
  ["CC(C)c1nn(-c2ccc(C(F)(F)F)cn2)cc1CCCOc1cccc(CC(=O)O)c1", 0.93],
  ["COc1cccc(CC(=O)O)c1OCCCc1cn(-c2ccc(C(F)(F)F)cn2)nc1C(C)C", 1.92],
  ["CCOc1nn(-c2ccc(C(F)(F)F)cn2)cc1CCCOc1ccccc1CC(=O)O", 0.98],
  ["CCc1cccc(CC(=O)O)c1OCCCc1cn(-c2ccc(C(F)(F)F)nn2)nc1C(C)C", 2.11],
  ["CCCc1nn(-c2ccc(C(F)(F)F)cn2)cc1CCCOc1ccc(CCC(=O)O)cc1OC", 0.23],
  ["CCCc1nn(-c2ccc(C(F)(F)F)cn2)cc1CCCOc1cc(CCC(=O)O)n(-c2ccccc2)n1", 0.57],
  ["CCOc1nn(-c2ccc(C(F)(F)F)cn2)cc1CCCOc1ccc(CCC(=O)O)c(OC(C)C)c1", -0.22],
  ["O=C(O)CCc1cc(OCCCc2cn(-c3ccc(C(F)(F)F)cn3)nc2-c2ccccc2)nn1-c1ccccc1", 0.18],
  ["CCOc1cc(OCCCc2cn(-c3ccc(C(F)(F)F)cn3)nc2C)ccc1CCC(=O)O", 0.34]
]}

----------
Below is a list of entries, each paired with its recorded melting point value.
Endpoint: melting point

{"columns": ["Molecule", "Endpoint", "Reported value"],
 "data": [
  ["CC(C)c1nn(-c2ccc(C(F)(F)F)cn2)cc1COc1cccc(CC(=O)O)c1", "melting point", "114 to 115 °C"],
  ["COc1cc(CCC(=O)O)ccc1OCCCc1cn(-c2ccc(C(F)(F)F)cn2)nc1C(C)C", "melting point", "118 to 119 °C"],
  ["COc1cccc(CC(=O)O)c1OCCCc1cn(-c2nnc(C(F)(F)F)s2)nc1C(C)C [Example 344]", "melting point", "114 to 115 °C"],
  ["CCCCc1nn(-c2ccc(C(F)(F)F)cn2)cc1CCCOc1nn(CC)cc1CC(=O)O", "melting point", "109 to 110 °C"],
  ["COc1cccc(CC(=O)O)c1OCCCc1cn(-c2ccc([N+](=O)[O-])cn2)nc1C(C)C", "melting point", "161 to 162 °C"],
  ["CCc1cccc(CC(=O)O)c1OCCCc1cn(-c2ccc(C(F)(F)F)nn2)nc1C(C)C", "melting point", "126 to 127 °C"],
  ["COc1cc(CC(=O)O)cc(OCCCc2cn(-c3ccc(C(F)(F)F)cn3)nc2C(C)C)c1", "melting point", "109 to 110 °C"],
  ["CCOc1cc(OCc2cn(-c3ccc(C(F)(F)F)cn3)nc2C)ccc1CCC(=O)O", "melting point", "151 to 152 °C"]
]}

----------
- Tested target: PPARδ-RXRα heterodimer (Homo sapiens)
- Protocol: PPARδ-RXRα heterodimer ligand activity, luciferase reporter in COS-1 transformant (Test Example 4)
- Measurement conditions: COS-1 transformant (hPPARδ, hRXRα, reporter), 36-48 hours, concentration for 50% of the maximum fold induction
pEC50: −log10 of the molar value.

{"columns": ["Compound", "Tested target", "pEC50"],
 "data": [
  ["CCCc1nn(-c2ccc(C(F)(F)F)cn2)cc1CCCOc1c(C)cccc1CC(=O)O [Example 319]", "PPARδ-RXRα heterodimer (Homo sapiens)", 8.29],
  ["CCOc1nn(-c2ccc(C(F)(F)F)cc2)cc1CCCOc1cccc(CC(=O)O)c1 [Example 113]", "PPARδ-RXRα heterodimer (Homo sapiens)", 8.32],
  ["CCCOc1nn(-c2ccc(C(F)(F)F)cn2)cc1CCCOc1ccc(CCC(=O)O)c(OCC)c1 [Example 153]", "PPARδ-RXRα heterodimer (Homo sapiens)", 8.72],
  ["CCCc1nn(-c2ccc(C(F)(F)F)cn2)cc1CCCOc1cc(CC(=O)O)cc(OC)c1 [Example 169]", "PPARδ-RXRα heterodimer (Homo sapiens)", 8.24]
]}

----------
Endpoint: melting point

{"columns": ["Smiles input", "Reported value"],
 "data": [
  ["COc1cccc(CC(=O)O)c1OCCCc1cn(-c2ccc(C(F)(F)F)cn2)nc1C(C)C", "142 to 143 °C"],
  ["CCOc1cc(OCCCc2cn(-c3ccc(C(F)(F)F)cn3)nc2O)ccc1CCC(=O)OC", "147 to 148 °C"],
  ["Cc1cc(OCc2cn(-c3ccc(C(F)(F)F)cn3)nc2C)ccc1CCC(=O)O", "144 to 145 °C"],
  ["CCC(CC)c1nn(-c2ccc(C(F)(F)F)nn2)cc1CCCOc1c(C)cccc1CC(=O)O", "76 to 77 °C"]
]}

----------
Endpoint: melting point

{"columns": ["Compound", "Endpoint", "Reported value"],
 "data": [
  ["CCCc1nn(-c2ccc(C(F)(F)F)cn2)cc1CCCOc1ccc(CC(=O)O)cc1OC", "melting point", "121 to 122 °C"],
  ["CCCc1nn(-c2ccc(C(F)(F)F)cn2)cc1CCCOc1ccc(CCC(=O)O)cc1OC", "melting point", "126 to 127 °C"],
  ["CCCc1nn(-c2ccc(C(F)(F)F)cn2)cc1CCCCOc1cc(CCC(=O)O)n(C)n1", "melting point", "122 to 123 °C"],
  ["Cc1nn(-c2ccc(C(F)(F)F)cn2)cc1COc1ccc(CCC(=O)O)cc1", "melting point", "195 to 196 °C"],
  ["CC(C)c1nn(-c2ccc(C(F)(F)F)cn2)cc1COc1cc(CCC(=O)O)n(C)n1", "melting point", "141 to 142 °C"],
  ["CCCc1nn(-c2ccc(C(F)(F)F)cn2)cc1CCCOc1cc(CCC(=O)O)ccc1OC", "melting point", "147 to 148 °C"],
  ["CCCc1nn(-c2ccc(C(F)(F)F)cn2)cc1CCCOc1c(CC)cnn1CC(=O)O", "melting point", "135 to 136 °C"],
  ["CC(C)c1nn(-c2ccc(C(F)(F)F)cn2)cc1CCCOc1cc(CCC(=O)O)n(C)n1", "melting point", "131 to 132 °C"],
  ["O=C(O)c1ccc(OCCCc2cc(-c3ccc(C(F)(F)F)cc3)no2)cc1", "melting point", "221 to 222 °C"],
  ["CCCc1nn(-c2ccc(C(F)(F)F)cn2)cc1CCCCOc1ccc(CC(=O)O)cc1", "melting point", "121 to 122 °C"],
  ["Cn1nc(OCCCc2cc(-c3ccc(C(F)(F)F)cc3)no2)cc1C(=O)O", "melting point", "162 to 163 °C"],
  ["CCOc1ccc(CC(=O)O)cc1OCCCc1cn(-c2ccc(C(F)(F)F)cn2)nc1C(C)C", "melting point", "116 to 117 °C"],
  ["CCOc1cc(OCCCc2cn(-c3ccccn3)nc2OCC)ccc1CCC(=O)O", "melting point", "110 to 111 °C"],
  ["CC(C)c1nn(-c2ccc(C(F)(F)F)cn2)cc1CCCOc1cccc(CCC(=O)O)c1", "melting point", "102 to 103 °C"],
  ["O=C(O)Cc1ccccc1OCc1cn(-c2ccc(C(F)(F)F)cn2)nc1C1CCCCC1", "melting point", "131 to 132 °C"],
  ["CC(C)c1nn(-c2ccc(C(F)(F)F)cn2)cc1CCCOc1cccc(OC(C)(C)C(=O)O)c1", "melting point", "101 to 102 °C"],
  ["CCOc1nn(-c2ccc(C(F)(F)F)cn2)cc1CCCOc1ccc(Cl)cc1CC(=O)O", "melting point", "130 to 131 °C"],
  ["CCOc1nn(-c2ccc(C(F)(F)F)cn2)cc1CCCOc1ccccc1CCC(=O)O", "melting point", "93 to 94 °C"],
  ["COc1cccc(CC(=O)O)c1OCCCc1cn(-c2ccc(Br)cn2)nc1C(C)C", "melting point", "152 to 153 °C"],
  ["CCCc1nn(-c2ccc(C(F)(F)F)cn2)cc1CCCOc1ccc(CC(=O)O)c(OC)c1", "melting point", "135 to 136 °C"],
  ["Cc1cccc(CC(=O)O)c1OCCCc1cn(-c2ccc(C(F)(F)F)cn2)nc1C1CCCCC1", "melting point", "184 to 185 °C"],
  ["CCCc1nn(-c2ccc(C(F)(F)F)cn2)cc1CCCOc1cc(CCC(=O)O)n(C2CCCCC2)n1", "melting point", "164 to 165 °C"],
  ["CCCCc1nn(-c2ccc(C(F)(F)F)cn2)cc1CCCOc1nn(C)cc1CC(=O)O", "melting point", "125 to 126 °C"],
  ["CCCc1nn(-c2ccc(C(F)(F)F)cn2)cc1CCCOc1cccc(CC(=O)O)c1", "melting point", "106 to 107 °C"],
  ["COc1cccc(CC(=O)O)c1OCCCc1cn(-c2ccc(NC(=O)C(C)C)cn2)nc1C(C)C", "melting point", "122 to 123 °C"],
  ["CCOc1nn(-c2ccc(C(F)(F)F)cn2)cc1CCCOc1cccc(OC)c1CCC(=O)O", "melting point", "110 to 111 °C"],
  ["CCCc1nn(-c2ccc(C(F)(F)F)cn2)cc1CCCOc1cc(CCC(=O)O)n(-c2ccccc2)n1", "melting point", "149 to 150 °C"],
  ["Cc1nn(-c2ccc(C(F)(F)F)cn2)cc1CCCOc1cccc(CC(=O)O)c1", "melting point", "96 to 97 °C"],
  ["CCOc1nn(-c2ccc(C(F)(F)F)cn2)cc1CCCOc1cc(OC)ccc1CC(=O)O", "melting point", "147 to 148 °C"],
  ["CCOc1nn(-c2cc(C(F)(F)F)ccn2)cc1CCCOc1cccc(CC(=O)O)c1", "melting point", "128 to 130 °C"],
  ["CCC(C)c1nn(-c2ccc(C(F)(F)F)cn2)cc1CCCOc1c(CC(=O)O)cccc1OC (stereo not drawn)", "melting point", "117 to 118 °C"],
  ["CCOc1nn(-c2ccc(C(F)(F)F)cn2)cc1CCOc1ccc(CCC(=O)O)c(OC)c1", "melting point", "147 to 148 °C"],
  ["Cn1cc(CC(=O)O)c(OCCCc2cn(-c3ccc(C(F)(F)F)cn3)nc2C2CCCCC2)n1", "melting point", "157 to 158 °C"]
]}
